Origin of the recorded values: paper PMC12494831

assay: DPPH radical scavenging (517 nm); conditions: 60 µM

{"columns": ["compound", "DPPH Inhibition %"],
 "data": [
  ["O=C1O[C@H]([C@@H](O)CO)C(O)=C1O [Ascorbic acid, reference compound]", "93.7%"],
  ["O=C(Oc1ccc2c(c1)OCO2)c1cccnc1 [Compound 2h, Benzo[1,3]dioxol-5-yl nicotinate]", "86.8%"],
  ["COC(=O)/C=C/c1ccc(OC)c(OC(=O)c2cccnc2)c1", "36.1%"]
]}

---

Property: IC50; scope: individual compounds
Assay: ABTS cation radical scavenging (734 nm)
Conditions: read-out: ABTS IC50±SD
Procedure: The experimental method principle relies on the degradation of the purple color of the DPPH radical and the blue color reduction of the ABTS cation radical. This is due to consuming the electron or hydrogen radical from the antioxidant (A-H). Both assays were measured at 517 nm and 734 nm, respectively. The distinction of color changes illustrates the potential scavenging activity of the inhibitor molecules in terms of hydrogen-donating proficiency. […]

{"columns": ["compound", "IC50 / µM"],
 "data": [
  ["CCOc1ccc2nc(NC(=O)c3cccnc3)sc2c1", 88],
  ["COC(=O)/C=C/c1ccc(OC(=O)c2cccnc2)c(OC)c1", 19.9],
  ["COC(=O)/C=C/c1ccc(OC)c(OC(=O)c2cccnc2)c1", 20.6],
  ["COc1cc(C(C)=O)ccc1OC(=O)c1cccnc1 [Compound 2i, 4-Acetyl-2-methoxyphenyl nicotinate]", 38.4],
  ["O=C(Nc1ccc2c(c1)OCO2)c1cccnc1 [Compound 2j, N-(Benzo[1,3]dioxol-5-yl)nicotinamide]", 57.2]
]}
